Test: Liver microsome metabolic stability in vitro (Beagle dog)
Conditions: Beagle dog liver microsomes
Label y when liver extraction rate (ERh) is strictly below 0.9; at or above that, label n.

Say whether its liver extraction rate (ERh) is strictly beneath 0.9. Entry: C[N+]1(C)CCC(OC(=O)Nc2cc(CCC(=O)Nc3ccc(CNC[C@H](O)c4ccc(O)c5[nH]c(=O)ccc45)cc3)ccc2-c2ccccc2)CC1.O=C([O-])C(F)(F)F [reference compound] y

Say whether its liver extraction rate (ERh) is strictly beneath 0.9. Entry: O=c1ccc2c([C@@H](O)CNCCCOc3ccc(OCCC[N+]45CCC(CC4)[C@@H](OC[C@@](O)(c4ccccc4)C4CCCC4)C5)cc3)ccc(O)c2[nH]1.[Br-] n

Say whether its liver extraction rate (ERh) is strictly beneath 0.9. Entry: O=c1ccc2c([C@@H](O)CNCCCCCCCCC[N+]34CCC(CC3)[C@@H](OC[C@@](O)(c3ccccc3)C3CCCC3)C4)ccc(O)c2[nH]1.[Br-] n

Say whether its liver extraction rate (ERh) is strictly beneath 0.9. Entry: OCc1cc([C@@H](O)CNCCCOc2ccc(OCCC[N+]34CCC(CC3)[C@@H](OC[C@@](O)(c3ccccc3)C3CCCC3)C4)cc2)ccc1O.[Br-] n

Say whether its liver extraction rate (ERh) is strictly beneath 0.9. Entry: CC(NC[C@H](O)c1ccc(O)c(NC=O)c1)c1ccc(OCCC[N+]23CCC(CC2)[C@@H](OC[C@@](O)(c2ccccc2)C2CCCC2)C3)cc1.[Br-] (some centres unmarked) n

Say whether its liver extraction rate (ERh) is strictly beneath 0.9. Entry: CC(Cc1ccc(OCC[N+]23CCC(CC2)[C@@H](OC[C@@](O)(c2ccccc2)C2CCCC2)C3)cc1)NC[C@H](O)c1ccc(O)c(NC=O)c1 (some centres unmarked) n

Say whether its liver extraction rate (ERh) is strictly beneath 0.9. Entry: O=c1ccc2c([C@@H](O)CNCCCCCCCCCN3CCC(Cn4cnc([C@](O)(c5ccccc5)C5CCCCC5)n4)CC3)ccc(O)c2[nH]1 [reference compound] y
